system: HEK-293T; assay: Multiplex assay against HEK293T; type: toxicity, cell-based; settings: human, 24 h, 1 µM, compound concentration 1 uM, replicate 2
Measured Attribute: Population Pyknosed Nuclei (%)
Form entry: value (%) — number only.

Recorded result, CC(C)c1cc(Nc2nc(N3CCC[C@H](N)C3)ncc2C(N)=O)cc(C(C)C)n1 , Population Pyknosed Nuclei (%): 49

Recorded result, Cc1ccc(S(=O)(=O)NC2c3ccccc3Oc3ccccc32)cc1 , Population Pyknosed Nuclei (%): 36

Recorded result, Cl.NC[C@@H]1O[C@H](C23CC4CC(CC(C4)C2)C3)Cc2c1ccc(O)c2O , Population Pyknosed Nuclei (%): 28

Recorded result, CC(C)C[C@H](NC(=O)[C@H](Cc1ccccc1)NC(=O)CNC(=O)CNC(=O)[C@@H](N)Cc1ccc(O)cc1)C(=O)O , Population Pyknosed Nuclei (%): 28

Recorded result, CCCCN(CC)c1nc(C)nc2c1c(C)cn2-c1c(C)cc(C)cc1C.Cl , Population Pyknosed Nuclei (%): 33

These entries and their values trace back to ChEMBL document CHEMBL4689842.
